IC50: recorded values
test system: 192522-019-R-J2-PDC complex tumor spheroid viability; assay: Anticancer human tumor 192522-019-R-J2-PDC patient-derived colon adenocarcinoma cell line growth inhibition [POLQ]; conditions: curve of first compound; second compound 1 µM

compound="CCc1cc2c(N3CCc4c(cc(Cn5ccnc5)cc4-c4cn(C)nc4C(F)(F)F)C3=O)cc(C)nc2c(OC)n1 + COC1C(OC(N)=O)C(O)C(Oc2ccc3c(O)c(NC(=O)c4ccc(O)c(CC=C(C)C)c4)c(=O)oc3c2C)OC1(C)C" experimentalreadout=IC50 assayresult="> 10 µM"

Now take the following compound into account.
Query COc1cc(C2c3cc4c(cc3C(OC3OC5COC(C)OC5C(O)C3O)C3COC(=O)C23)OCO4)cc(OC)c1O (configuration not stated) + COC1C(OC(N)=O)C(O)C(Oc2ccc3c(O)c(NC(=O)c4ccc(O)c(CC=C(C)C)c4)c(=O)oc3c2C)OC1(C)C yields IC50 of > 10 µM

---

tested on: 192522-019-R-J2-PDC complex tumor spheroid viability; experiment: Anticancer human tumor 192522-019-R-J2-PDC cell line growth inhibition [POLQ]; details: second compound 1 µM; first compound 0.0316 µM; stronger effect = lower value;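 also: spheroids exposed to drugs for seven days before reading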;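 as to viability, T/C: 100% = DMSO vehicle control viability in luminescence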
experimentalReadout: viability, T/C (%)
Just the number in %, nothing appended.

Query CC[C@@]1(O)C(=O)OCc2c1cc1n(c2=O)Cc2cc3c(CN(C)C)c(O)ccc3nc2-1 + Cc1cccc(N(C)C(=O)C2C(O)CCN2c2nc(C)cc(C(F)(F)F)c2C#N)c1 yields viability, T/C of 96.2

---

system: 192522-019-R-J2-PDC complex tumor spheroid viability; experiment: Anticancer human tumor 192522-019-R-J2-PDC cell line growth inhibition [POLQ]; settings: second compound 3.16 µM; first compound 0.001 µM; stronger effect = lower value;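 also: spheroids exposed to drugs for seven days before reading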;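 as to viability, T/C: 100% = DMSO vehicle control viability in luminescence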
experimentalReadout: viability, T/C (%)
Just the number in %, nothing appended.

Query Cn1ncnc1[C@H]1c2n[nH]c(=O)c3cc(F)cc(c23)N[C@@H]1c1ccc(F)cc1 + COC1C(OC(N)=O)C(O)C(Oc2ccc3c(O)c(NC(=O)c4ccc(O)c(CC=C(C)C)c4)c(=O)oc3c2C)OC1(C)C yields viability, T/C of 98.8

Query CC[C@@]1(O)C(=O)OCc2c1cc1n(c2=O)Cc2cc3c(CN(C)C)c(O)ccc3nc2-1 + COC1C(OC(N)=O)C(O)C(Oc2ccc3c(O)c(NC(=O)c4ccc(O)c(CC=C(C)C)c4)c(=O)oc3c2C)OC1(C)C yields viability, T/C of 99.1

---

viability, T/C: recorded values
test system: 192522-019-R-J2-PDC complex tumor spheroid viability; experiment: Anticancer human tumor 192522-019-R-J2-PDC cell line growth inhibition [POLQ]; conditions: second compound 0.0316 µM; first compound 0.316 µM; stronger effect = lower value;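 also: spheroids exposed to drugs for seven days before reading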;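 as to viability, T/C: 100% = DMSO vehicle control viability in luminescence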
Just the number in %, nothing appended.

compound="COc1ccc([C@@H](O)c2cc(-c3ncnc4cc(N5CCOCC5)ccc34)c(F)cc2Cl)nn1 + COC1C(OC(N)=O)C(O)C(Oc2ccc3c(O)c(NC(=O)c4ccc(O)c(CC=C(C)C)c4)c(=O)oc3c2C)OC1(C)C" units=% assayresult=120
compound="CCc1cc2c(N3CCc4c(cc(Cn5ccnc5)cc4-c4cn(C)nc4C(F)(F)F)C3=O)cc(C)nc2c(OC)n1 + Nc1ccc(C#CCN(C(=O)Cc2ncc(C(F)(F)F)cc2C(F)(F)F)c2ccc(F)cc2)nn1" units=% assayresult=88.1
compound="O=c1[nH]cc(F)c(=O)[nH]1 + Nc1ccc(C#CCN(C(=O)Cc2ncc(C(F)(F)F)cc2C(F)(F)F)c2ccc(F)cc2)nn1" units=% assayresult=92.5
compound="O=C(Nc1ccc(O)c(NS(=O)(=O)c2ccc(F)cc2)c1)c1ccc(-c2ccccc2)cc1 + Nc1ccc(C#CCN(C(=O)Cc2ncc(C(F)(F)F)cc2C(F)(F)F)c2ccc(F)cc2)nn1" units=% assayresult=94.6
compound="CC(C)n1c(=O)n(C)c2cnc3cc(F)c(-c4ccc(OCCCN5CCCCC5)nc4)cc3c21 + COC1C(OC(N)=O)C(O)C(Oc2ccc3c(O)c(NC(=O)c4ccc(O)c(CC=C(C)C)c4)c(=O)oc3c2C)OC1(C)C" units=% assayresult=115

Query COc1cccc(OCCCN)c1-c1cc(Nc2cnc(C#N)cn2)n[nH]1 + COC1C(OC(N)=O)C(O)C(Oc2ccc3c(O)c(NC(=O)c4ccc(O)c(CC=C(C)C)c4)c(=O)oc3c2C)OC1(C)C yields viability, T/C of 30.7

Query Nc1ccn(C2OC(CO)C(O)C2(F)F)c(=O)n1 (stereo unspecified) + Nc1ccc(C#CCN(C(=O)Cc2ncc(C(F)(F)F)cc2C(F)(F)F)c2ccc(F)cc2)nn1 yields viability, T/C of 80.6

Query CNCc1ccc(-c2[nH]c3cc(F)cc4c3c2CCNC4=O)cc1 + Cc1cccc(N(C)C(=O)C2C(O)CCN2c2nc(C)cc(C(F)(F)F)c2C#N)c1 yields viability, T/C of 96.8

Query C#Cc1c(F)ccc2cc(O)cc(-c3ncc4c(N5CC6CCC(C5)N6)nc(OCC56CCCN5CC(F)C6)nc4c3F)c12 (stereo unspecified) + Nc1ccc(C#CCN(C(=O)Cc2ncc(C(F)(F)F)cc2C(F)(F)F)c2ccc(F)cc2)nn1 yields viability, T/C of 78.2

Query C#Cc1c(F)ccc2cc(O)cc(-c3ncc4c(N5CC6CCC(C5)N6)nc(OCC56CCCN5CC(F)C6)nc4c3F)c12 (stereo unspecified) + Cc1cccc(N(C)C(=O)C2C(O)CCN2c2nc(C)cc(C(F)(F)F)c2C#N)c1 yields viability, T/C of 78.5

Query COc1cccc2c1C(=O)c1c(O)c3c(c(O)c1C2=O)CC(O)(C(=O)CO)CC3OC1CC(N)C(O)C(C)O1 (stereo unspecified) + Cc1cccc(N(C)C(=O)C2C(O)CCN2c2nc(C)cc(C(F)(F)F)c2C#N)c1 yields viability, T/C of 73.9

---

tested on: 192522-019-R-J2-PDC complex tumor spheroid viability; assay: Anticancer human tumor 192522-019-R-J2-PDC cell line growth inhibition [POLQ]; settings: second compound 0.316 µM; first compound 0.1 µM; stronger effect = lower value;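 also: spheroids exposed to drugs for seven days before reading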;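 as to viability, T/C: 100% = DMSO vehicle control viability in luminescence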
experimentalReadout: viability, T/C (%)
Just the number in %, nothing appended.

// solved cases for viability, T/C follow
compound="CCc1cc2c(N3CCc4c(cc(Cn5ccnc5)cc4-c4cn(C)nc4C(F)(F)F)C3=O)cc(C)nc2c(OC)n1 + COC1C(OC(N)=O)C(O)C(Oc2ccc3c(O)c(NC(=O)c4ccc(O)c(CC=C(C)C)c4)c(=O)oc3c2C)OC1(C)C" targetorsystem="192522-019-R-J2-PDC complex tumor spheroid viability" units=% assayresult=96.7
compound="Cn1ncnc1[C@H]1c2n[nH]c(=O)c3cc(F)cc(c23)N[C@@H]1c1ccc(F)cc1 + COC1C(OC(N)=O)C(O)C(Oc2ccc3c(O)c(NC(=O)c4ccc(O)c(CC=C(C)C)c4)c(=O)oc3c2C)OC1(C)C" targetorsystem="192522-019-R-J2-PDC complex tumor spheroid viability" units=% assayresult=87.2
compound="C=CCn1c(=O)c2cnc(Nc3ccc(N4CCN(C)CC4)cc3)nc2n1-c1cccc(C(C)(C)O)n1 + COC1C(OC(N)=O)C(O)C(Oc2ccc3c(O)c(NC(=O)c4ccc(O)c(CC=C(C)C)c4)c(=O)oc3c2C)OC1(C)C" targetorsystem="192522-019-R-J2-PDC complex tumor spheroid viability" units=% assayresult=105
compound="COc1cc2cc(C(=O)CCC(=O)O)sc2cc1OC + Nc1ccc(C#CCN(C(=O)Cc2ncc(C(F)(F)F)cc2C(F)(F)F)c2ccc(F)cc2)nn1" targetorsystem="192522-019-R-J2-PDC complex tumor spheroid viability" units=% assayresult=102
compound="COc1ccc([C@@H](O)c2cc(-c3ncnc4cc(N5CCOCC5)ccc34)c(F)cc2Cl)nn1 + Nc1ccc(C#CCN(C(=O)Cc2ncc(C(F)(F)F)cc2C(F)(F)F)c2ccc(F)cc2)nn1" targetorsystem="192522-019-R-J2-PDC complex tumor spheroid viability" units=% assayresult=101
compound="CCc1c2c(nc3ccc(O)cc13)-c1cc3c(c(=O)n1C2)COC(=O)[C@]3(O)CC + Cc1cccc(N(C)C(=O)C2C(O)CCN2c2nc(C)cc(C(F)(F)F)c2C#N)c1" targetorsystem="192522-019-R-J2-PDC complex tumor spheroid viability" units=% assayresult=60.7
compound="C=CC(=O)N1CCN(c2nc(=O)n(-c3c(C)ccnc3C(C)C)c3nc(-c4c(O)cccc4F)c(F)cc23)C(C)C1 (stereo not given) + Nc1ccc(C#CCN(C(=O)Cc2ncc(C(F)(F)F)cc2C(F)(F)F)c2ccc(F)cc2)nn1" targetorsystem="192522-019-R-J2-PDC complex tumor spheroid viability" units=% assayresult=104
compound="C#Cc1c(F)ccc2cc(O)cc(-c3ncc4c(N5CC6CCC(C5)N6)nc(OCC56CCCN5CC(F)C6)nc4c3F)c12 (stereo not given) + COC1C(OC(N)=O)C(O)C(Oc2ccc3c(O)c(NC(=O)c4ccc(O)c(CC=C(C)C)c4)c(=O)oc3c2C)OC1(C)C" targetorsystem="192522-019-R-J2-PDC complex tumor spheroid viability" units=% assayresult=88.4

GET /values?item= CCc1c2c(nc3ccc(O)cc13)-c1cc3c(c(=O)n1C2)COC(=O)[C@]3(O)CC + COC1C(OC(N)=O)C(O)C(Oc2ccc3c(O)c(NC(=O)c4ccc(O)c(CC=C(C)C)c4)c(=O)oc3c2C)OC1(C)C &system= 192522-019-R-J2-PDC complex tumor spheroid viability returns viability, T/C: 47.5

GET /values?item= CCc1c2c(nc3ccc(O)cc13)-c1cc3c(c(=O)n1C2)COC(=O)[C@]3(O)CC + Nc1ccc(C#CCN(C(=O)Cc2ncc(C(F)(F)F)cc2C(F)(F)F)c2ccc(F)cc2)nn1 &system= 192522-019-R-J2-PDC complex tumor spheroid viability returns viability, T/C: 57

GET /values?item= CC1COCCN1c1cc(C2(O)CC3CCC(C2)O3)c2cnn(-c3ccn[nH]3)c2n1 (stereo not given) + Cc1cccc(N(C)C(=O)C2C(O)CCN2c2nc(C)cc(C(F)(F)F)c2C#N)c1 &system= 192522-019-R-J2-PDC complex tumor spheroid viability returns viability, T/C: 82.9

GET /values?item= CC1COCCN1c1cc(-c2ccnn2C)c2ccnc(-c3ccn[nH]3)c2n1 (stereo not given) + COC1C(OC(N)=O)C(O)C(Oc2ccc3c(O)c(NC(=O)c4ccc(O)c(CC=C(C)C)c4)c(=O)oc3c2C)OC1(C)C &system= 192522-019-R-J2-PDC complex tumor spheroid viability returns viability, T/C: 84.1

GET /values?item= CC1COCCN1c1cc(C2(S(C)(=N)=O)CC2)nc(-c2ccnc3[nH]ccc23)n1 (stereo not given) + Nc1ccc(C#CCN(C(=O)Cc2ncc(C(F)(F)F)cc2C(F)(F)F)c2ccc(F)cc2)nn1 &system= 192522-019-R-J2-PDC complex tumor spheroid viability returns viability, T/C: 100

GET /values?item= COc1cccc(OCCCN)c1-c1cc(Nc2cnc(C#N)cn2)n[nH]1 + Cc1cccc(N(C)C(=O)C2C(O)CCN2c2nc(C)cc(C(F)(F)F)c2C#N)c1 &system= 192522-019-R-J2-PDC complex tumor spheroid viability returns viability, T/C: 44

GET /values?item= COc1cccc2c1C(=O)c1c(O)c3c(c(O)c1C2=O)CC(O)(C(=O)CO)CC3OC1CC(N)C(O)C(C)O1 (stereo not given) + COC1C(OC(N)=O)C(O)C(Oc2ccc3c(O)c(NC(=O)c4ccc(O)c(CC=C(C)C)c4)c(=O)oc3c2C)OC1(C)C &system= 192522-019-R-J2-PDC complex tumor spheroid viability returns viability, T/C: 86.4

GET /values?item= C=CCn1c(=O)c2cnc(Nc3ccc(N4CCN(C)CC4)cc3)nc2n1-c1cccc(C(C)(C)O)n1 + Cc1cccc(N(C)C(=O)C2C(O)CCN2c2nc(C)cc(C(F)(F)F)c2C#N)c1 &system= 192522-019-R-J2-PDC complex tumor spheroid viability returns viability, T/C: 110

GET /values?item= COc1ccc([C@@H](O)c2cc(-c3ncnc4cc(N5CCOCC5)ccc34)c(F)cc2Cl)nn1 + Cc1cccc(N(C)C(=O)C2C(O)CCN2c2nc(C)cc(C(F)(F)F)c2C#N)c1 &system= 192522-019-R-J2-PDC complex tumor spheroid viability returns viability, T/C: 95.7

GET /values?item= O=c1[nH]cc(F)c(=O)[nH]1 + Nc1ccc(C#CCN(C(=O)Cc2ncc(C(F)(F)F)cc2C(F)(F)F)c2ccc(F)cc2)nn1 &system= 192522-019-R-J2-PDC complex tumor spheroid viability returns viability, T/C: 93.5

GET /values?item= COc1cc(C2c3cc4c(cc3C(OC3OC5COC(C)OC5C(O)C3O)C3COC(=O)C23)OCO4)cc(OC)c1O (stereo not given) + Cc1cccc(N(C)C(=O)C2C(O)CCN2c2nc(C)cc(C(F)(F)F)c2C#N)c1 &system= 192522-019-R-J2-PDC complex tumor spheroid viability returns viability, T/C: 108

GET /values?item= COc1cccc(OCCCN)c1-c1cc(Nc2cnc(C#N)cn2)n[nH]1 + Nc1ccc(C#CCN(C(=O)Cc2ncc(C(F)(F)F)cc2C(F)(F)F)c2ccc(F)cc2)nn1 &system= 192522-019-R-J2-PDC complex tumor spheroid viability returns viability, T/C: 38.3

meta.source: PubChem BioAssay AID1963850
